Test system: mustard beetle larvae (Phaedon cochleariae)
Assay: Phaedon larvae test
Format: in vivo
Details: after 7 days; active compound concentration 0.1%; dipped cabbage leaves
Below is a list of entries, each paired with its recorded destruction value.
Number in %, nothing else.

Some compounds with recorded destruction:
# COMPOUND, destruction, %
data = [
    ("Cc1cc(Cl)c(C2=C(O)C(C)(C(C)C)NC2=O)c(Cl)c1 (stereo not shown) [Example I-1-a-11]", 100),
    ("CCC1(C)SC(=O)C(c2c(C)cc(Cl)cc2Cl)=C1O (stereo not shown) [Example I-3-a-1]", 100),
    ("Cc1cc(Cl)c(C2=C(O)C3(CCCCC3)NC2=O)c(Cl)c1 [Example I-1-a-9]", 100),
]

Req: Given Cc1cc(Cl)c(C2=C(O)C3(CCCC(C)C3)NC2=O)c(Cl)c1 (single isomer, unassigned) [Example I-1-a-8] , state its recorded destruction.
Resp: 100

Req: I have this compound here, CC(=O)OC1=C(c2c(C)cc(Cl)cc2Cl)C(=O)NC12CCCCC2 [Example I-1-b-7] , and I need its recorded destruction.
Resp: 100

Req: Entry Cc1cc(Cl)c(C2=C(O)C3(CCC(C)CC3)OC2=O)c(Cl)c1 (stereo not shown) [Example I-2-a-6] has what destruction?
Resp: 100

Req: Consider the compound shown here: Cc1cc(Cl)cc(Cl)c1C1=C(O)C2(CCCC(C)C2)NC1=O (single isomer, unassigned) [Example I-1-a-2] What is its recorded destruction?
Resp: 100

Req: destruction for Cc1cc(Cl)c(C2=C(O)C3(CCCCC3)SC2=O)c(Cl)c1 [Example I-3-a-2] ?
Resp: 100

Req: State the recorded destruction for this entry: Cc1cc(Cl)cc(Cl)c1C1=C(O)C2(CCCCC2)SC1=O [Example I-3-a-3]
Resp: 100

Req: Which destruction is reported for this compound? Cc1cc(Cl)c(C2=C(O)C3(CCOCC3)NC2=O)c(Cl)c1 [Example I-1-a-10]
Resp: 100

----------
System: greenhouse red spider mite or two-spotted spider-mite (Tetranychus urticae)
Test: Tetranychus test (OP-resistant/immersion treatment)
Format: in vivo
Settings: after 13 days; active compound concentration 0.1%; immersion treatment of bean plants
EXPERIMENTAL READOUT: activity (destruction) (%)
Give the number; % is assumed, so skip it.

Req: Please give the measured activity (destruction) for this molecule: `Cc1cc(Cl)c(C2=C(O)C3(CCOCC3)NC2=O)c(Cl)c1`
Resp: 100

----------
Each item that follows carries a reported degree of damage, Setaria viridis.
Tested on: test plants
Experiment: Pre-emergence test/greenhouse
Assay type: in vivo
Settings: greenhouse, 250 g/ha, rated after three weeks vs untreated control, 0%=no action, 100%=total destruction
Report the figure in % without appending any unit label.

# COMPOUND, QUANTITATIVE READOUT
data = [
    ("Cc1cc(Cl)c(C2=C(O)C3(CCCC(C)C3)NC2=O)c(Cl)c1 (single isomer, unassigned)", 100),
    ("Cc1cc(Cl)cc(Cl)c1C1=C(OC(=O)c2ccc(Cl)cc2)C2(CCC(C)CC2)NC1=O (single isomer, unassigned)", 100),
]

Here is the next item to consider.
Req: Write down the reported degree of damage, Setaria viridis of CCOC(=O)OC1=C(c2c(Cl)cc(C)cc2Cl)C(=O)NC12CCCC(C)C2 (single isomer, unassigned) , test system: test plants.
Resp: 100
